- systemName: human CB1 (Homo sapiens)
- Sequence (P21554 whole entry): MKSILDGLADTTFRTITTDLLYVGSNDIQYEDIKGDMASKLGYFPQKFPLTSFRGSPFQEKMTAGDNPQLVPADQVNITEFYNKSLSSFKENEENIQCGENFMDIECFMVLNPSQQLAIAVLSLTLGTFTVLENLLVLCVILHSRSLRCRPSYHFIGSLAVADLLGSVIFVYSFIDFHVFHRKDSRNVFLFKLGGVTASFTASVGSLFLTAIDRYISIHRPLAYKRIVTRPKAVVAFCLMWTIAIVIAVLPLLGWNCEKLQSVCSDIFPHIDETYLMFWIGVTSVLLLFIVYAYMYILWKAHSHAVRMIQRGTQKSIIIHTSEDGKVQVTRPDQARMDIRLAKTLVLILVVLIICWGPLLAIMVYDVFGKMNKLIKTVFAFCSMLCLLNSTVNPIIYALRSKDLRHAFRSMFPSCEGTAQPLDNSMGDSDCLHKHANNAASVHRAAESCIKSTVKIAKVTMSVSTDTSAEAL
- testSummary: fluorescence-based membrane potential assay (GIRK activation) in AtT20 cells
- Assay type: cell-based
- Set-up: expressed in transfected cells; host or cells: mouse AtT20 FlpIn cells
- statedConditions: hCB1 EC50, AtT20-hCB1; value in brackets after pEC50
Let's look at some molecules and their measured EC50.
valueType: EC50 (nM)

In [3]: df
Out[3]:
                                    molecule  unitsymbol  observedmeasurement
 0  COC(=O)[C@@H](NC(=O)c1cn(CCCCF)c2ncccc12)C(C)C [Compound 38]          nM                 1390
 1  CC(C)(C)[C@H](NC(=O)c1nn(CCCCF)c2ccccc12)C(N)=O [Compound 29]          nM                 1.61
 2  COC(=O)[C@H](Cc1ccccc1)NC(=O)c1cn(CCCCF)c2ccccc12 [Compound 35]          nM                 36.6
 3  CC(C)[C@H](NC(=O)c1cn(CCCCF)c2ccccc12)C(N)=O [Compound 25]          nM                 96.5
 4  COC(=O)[C@@H](NC(=O)c1cn(CCCCF)c2ncccc12)C(C)(C)C [Compound 39]          nM                 22.2
 5  COC(=O)[C@@H](NC(=O)c1nn(CCCCC#N)c2ccccc12)C(C)(C)C [Compound 20]          nM                 0.72
 6  COC(=O)[C@@H](NC(=O)c1cn(CCCCF)c2ccccc12)C(C)(C)C [Compound 7]          nM                 3.43
 7  CC(C)(C)[C@H](NC(=O)c1cn(CCCCF)c2ncccc12)C(N)=O [Compound 32]          nM                   46
 8  CC(C)(C)[C@H](NC(=O)c1cn(CCCCC#N)c2ccccc12)C(N)=O [Compound 9]          nM                 10.2
 9  CC(C)[C@H](NC(=O)c1nn(CCCCC#N)c2ccccc12)C(N)=O [Compound 11]          nM                 26.3
10  CC(C)(C)[C@H](NC(=O)c1cn(CCCCF)c2ccccc12)C(N)=O [Compound 26]          nM                 40.4
11  COC(=O)[C@H](Cc1ccccc1)NC(=O)c1cn(CCCCC#N)c2ncccc12 [Compound 24]          nM                  189
12  CC(C)(C)[C@H](NC(=O)c1cn(CCCCC#N)c2ncccc12)C(N)=O [Compound 15]          nM                   14
13  COC(=O)[C@@H](NC(=O)c1cn(CCCCF)c2ccccc12)C(C)C [Compound 34]          nM                 76.9
14  COC(=O)[C@@H](NC(=O)c1nn(CCCCF)c2ccccc12)C(C)C [Compound 36]          nM                 3.93

----------
Let's look at some molecules and their measured pEC50.
- systemName: human CB2 (Homo sapiens, UniProt P34972)
- Sequence (P34972 whole entry): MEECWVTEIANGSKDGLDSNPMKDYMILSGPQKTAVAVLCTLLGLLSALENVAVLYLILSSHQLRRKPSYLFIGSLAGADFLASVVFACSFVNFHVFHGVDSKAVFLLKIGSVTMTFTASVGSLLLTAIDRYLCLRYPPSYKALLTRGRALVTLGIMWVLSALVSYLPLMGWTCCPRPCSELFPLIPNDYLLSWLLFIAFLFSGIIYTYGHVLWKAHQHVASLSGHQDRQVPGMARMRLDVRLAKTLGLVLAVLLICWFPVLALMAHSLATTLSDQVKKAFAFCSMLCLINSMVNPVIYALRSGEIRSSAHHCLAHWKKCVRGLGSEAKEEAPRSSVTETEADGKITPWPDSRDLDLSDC
- testSummary: fluorescence-based membrane potential assay (GIRK activation) in AtT20 cells
- Assay type: cell-based
- Design: expressed in transfected cells; host or cells: mouse AtT20 FlpIn cells
- statedConditions: hCB2 EC50, AtT20-hCB2; value in brackets after pEC50
pEC50: −log10 of the molar value.
valueType: pEC50

>>> print(df.to_string())
                                 smilestext  observedmeasurement
0  COC(=O)[C@H](Cc1ccccc1)NC(=O)c1cn(CCCCC#N)c2ccccc12                 8.07
1  CC(C)(C)[C@H](NC(=O)c1cn(CCCCC#N)c2ncccc12)C(N)=O                 8.22
2  COC(=O)[C@@H](NC(=O)c1cn(CCCCC#N)c2ccccc12)C(C)C                 7.87
